- Tested on: Staphylococcus intermedius
- METHOD SUMMARY: In vitro inhibitory activity in iso sensitest agar against Staphylococcus intermedius strain ATCC 9503 in addition with 5%serum
- Assay type: functional

MOLECULE: CC(C)CC(=O)C(=O)NCCc1cn(Cc2ccccc2)c2ccccc12
RELATION QUALIFIER: >
MIC [µg/mL]: 64
//
MOLECULE: CC(C)CC(=O)C(=O)NCCc1cn(-c2ccccc2)c2ccccc12
RELATION QUALIFIER: >
MIC [µg/mL]: 64
//
MOLECULE: CC(C)CC(=O)C(=O)NCCc1cn(C)c2ccccc12
RELATION QUALIFIER: =
MIC [µg/mL]: 32
//
MOLECULE: CCC(C)C(=O)C(=O)NCCc1cn(C(C)C)c2ccccc12 (configuration not stated)
RELATION QUALIFIER: >
MIC [µg/mL]: 32
//
MOLECULE: CCC(C)C(=O)C(=O)NCCc1c[nH]c2ccccc12 (configuration not stated)
RELATION QUALIFIER: =
MIC [µg/mL]: 16
//
MOLECULE: CC(C)CC(=O)C(=O)NCCc1cn(C(C)C)c2ccccc12
RELATION QUALIFIER: =
MIC [µg/mL]: 64
//
MOLECULE: CCC(C)C(=O)C(=O)NCCc1cn(Cc2ccccc2)c2ccccc12 (configuration not stated)
RELATION QUALIFIER: >
MIC [µg/mL]: 64

====

- Test system: Staphylococcus intermedius
- METHOD SUMMARY: In vitro inhibitory activity in iso sensitest agar against Staphylococcus intermedius strain ATCC 29663 in addition with 5%serum
- Type: functional

MOLECULE: CCC(C)C(=O)C(=O)NCCc1cn(C)c2ccccc12 (stereo not drawn)
MEASURE UNIT: µg/mL
RELATION QUALIFIER: =
MIC: 32
//
MOLECULE: CCC(C)C(=O)C(=O)NCCc1cn(Cc2ccccc2)c2ccccc12 (stereo not drawn)
MEASURE UNIT: µg/mL
RELATION QUALIFIER: >
MIC: 64
//
MOLECULE: CC(C)CC(=O)C(=O)NCCc1cn(Cc2ccccc2)c2ccccc12
MEASURE UNIT: µg/mL
RELATION QUALIFIER: >
MIC: 64
//
MOLECULE: CC(C)CC(=O)C(=O)NCCc1cn(C)c2ccccc12
MEASURE UNIT: µg/mL
RELATION QUALIFIER: =
MIC: 16
//
MOLECULE: CCC(C)C(=O)C(=O)NCCc1c[nH]c2ccccc12 (stereo not drawn)
MEASURE UNIT: µg/mL
RELATION QUALIFIER: =
MIC: 16
//
MOLECULE: CCC(C)C(=O)C(=O)NCCc1cn(C(C)C)c2ccccc12 (stereo not drawn)
MEASURE UNIT: µg/mL
RELATION QUALIFIER: >
MIC: 32
//
MOLECULE: CC(C)CC(=O)C(=O)NCCc1cn(-c2ccccc2)c2ccccc12
MEASURE UNIT: µg/mL
RELATION QUALIFIER: >
MIC: 64
//
MOLECULE: CC(C)CC(=O)C(=O)NCCc1cn(C(C)C)c2ccccc12
MEASURE UNIT: µg/mL
RELATION QUALIFIER: =
MIC: 32

====

- System: Staphylococcus hyicus
- METHOD SUMMARY: In vitro inhibitory activity in iso sensitest agar against Staphylococcus hyicus strain ATCC 9621
- Format: functional
MEASURED METRIC: MIC (mg/L)

MOLECULE: CCC(C)C(=O)C(=O)NC(C)Cc1c[nH]c2ccccc12 (centres undefined)
MEASURED METRIC: MIC
MEASURE UNIT: mg/L
ASSAY VALUE: 1

MOLECULE: CC(C)CC(=O)C(=O)NCCc1cn(Cc2ccccc2)c2ccccc12
MEASURED METRIC: MIC
MEASURE UNIT: mg/L
ASSAY VALUE: 1

MOLECULE: CC(C)CC(=O)C(=O)NCCc1cn(C)c2ccccc12
MEASURED METRIC: MIC
MEASURE UNIT: mg/L
ASSAY VALUE: 0.03

MOLECULE: CCC(C)C(=O)C(=O)NCCc1cn(Cc2ccccc2)c2ccccc12 (centres undefined)
MEASURED METRIC: MIC
MEASURE UNIT: mg/L
ASSAY VALUE: 1

MOLECULE: CCC(C)C(=O)C(=O)NCCc1cn(C(C)C)c2ccccc12 (centres undefined)
MEASURED METRIC: MIC
MEASURE UNIT: mg/L
ASSAY VALUE: 1

MOLECULE: CCC(C)C(=O)C(=O)NCCc1cn(C)c2ccccc12 (centres undefined)
MEASURED METRIC: MIC
MEASURE UNIT: mg/L
ASSAY VALUE: 0.06

MOLECULE: CC(C)CC(=O)C(=O)NCCc1c[nH]c2ccccc12
MEASURED METRIC: MIC
MEASURE UNIT: mg/L
ASSAY VALUE: 0.25

MOLECULE: CCC(C)C(=O)C(=O)NCCc1c[nH]c2ccccc12 (centres undefined)
MEASURED METRIC: MIC
MEASURE UNIT: mg/L
ASSAY VALUE: 1

MOLECULE: CC(C)CC(=O)C(=O)NCCc1cn(C(C)C)c2ccccc12
MEASURED METRIC: MIC
MEASURE UNIT: mg/L
ASSAY VALUE: 0.06
